- Study Target: T1, human interleukin 13 receptor subunit alpha 2 (IL-13RA2) (human, UniProt Q14627 27-380)
- T1 construct: whole, on cells; also called IL-13Rα2; CD213A2
- T1 sequence (looked up): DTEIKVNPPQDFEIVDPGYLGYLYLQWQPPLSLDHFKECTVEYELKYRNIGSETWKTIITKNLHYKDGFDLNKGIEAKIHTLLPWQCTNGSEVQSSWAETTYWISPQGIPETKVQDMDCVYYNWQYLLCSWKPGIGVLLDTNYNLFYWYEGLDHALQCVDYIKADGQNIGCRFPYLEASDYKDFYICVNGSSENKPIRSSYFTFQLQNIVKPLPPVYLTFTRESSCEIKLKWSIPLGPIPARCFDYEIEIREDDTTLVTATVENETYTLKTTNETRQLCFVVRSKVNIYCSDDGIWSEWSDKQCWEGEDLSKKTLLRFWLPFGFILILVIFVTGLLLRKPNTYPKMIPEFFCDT
- Method Summary: FACS on A375 cells
Please respond with reported Top (MFI) for every item in the list.
Note: unit MFI is implicit; provide only the numeric part.

Top (MFI) reported for this binder 62A8D8 (antibody, V domains shown, purified mouse antibody) VH: EVKLVESGGGLVKPGGSLKLSCAASGFTFSSYGMSWVRQTPEKRLEWVATISGGGSYTYYPDSVKGRFTISRDNAKNNLYLQMSSLRSEDTALYYCARRDLRSAMDYWGQGTSVTVSS VL: DIVMTQSQKFMSTSVGDRVSVTCKASQNVDINVAWYQQKPGQSPKALIYSASYRYSGVPDRFTGSGSGTDFTLTISNVQSEDLAEFFCQQYNNYPLTFGGGTKLEIK : 334000

// Top (MFI) lookup, binder = 42E3C4 (antibody, V domains shown, purified mouse antibody) VH: EVKLVESGGGLVRPGGSLKISCAASGFTFSTYGMSWVRQTPEKRLEWVATISGGGSYTYYPDSVKGRFTISRDNAKNNLYLQMSSLRSEDTALYYCARRDLRSAMDYWGQGTSVTVSS VL: DIVMTQSQKFMSTSVGDRVSVTCKASQNVDINVAWYQQKPGQSPKALIYSASFRYSGVPDRFTGSGSGTDFTLTISNVQSEDLAEYFCQQYNSYPLTFGGGTKLEIK , result: 235000

Looking up 73A11E2 (antibody, V domains shown, purified mouse antibody) VH: EVKLVESGGGLVKPGGSLKLSCAASGFTFSSYGMSWVRQTPEKRLEWVATISGGGSYTYYPDSVKGRFTISRDNARNNLYLQMNSLRSEDTALYYCARRDLRSAMDYWGQGTSVTVSS VL: DIVMTQSQKFMSTSVGDRVSVTCKASQNVDINVAWYQQKPGQSPKALIYSASYRYSGVPDRFTGSGSGTDFTLTISNVQSEDLAEFFCQQYNSYPLTFGGGTKLEIK , I found its Top (MFI) recorded as 223000

Kindly note the recorded Top (MFI) for 62F6A8 (antibody, V domains shown, purified mouse antibody) VH: QVQIQQSGAELARPGASVMLSCKASGYTFTDYWMQWIKQRPGQGLEGIGAIYPGDGDTAYNQKFRGKATLTADKSSSTAYMQLNSLASEDSAVYFCARGATLLRPFPFWGQGTLVTVSA VL: DIVMTQSHKFMSTSVGDRVSITCKASQDVSTAVAWYQQKPGQSPKLLIYSASYRYAGVPDRFTGSGSGTDFTFTISSVQAEDLAVYSCQQHYSIPPTFGGGTKLEIK , which is 217000
